A collection of compounds and their measured pIC50
target.of.assay: human renin (Homo sapiens, UniProt P00797)
Sequence (P00797 67-406): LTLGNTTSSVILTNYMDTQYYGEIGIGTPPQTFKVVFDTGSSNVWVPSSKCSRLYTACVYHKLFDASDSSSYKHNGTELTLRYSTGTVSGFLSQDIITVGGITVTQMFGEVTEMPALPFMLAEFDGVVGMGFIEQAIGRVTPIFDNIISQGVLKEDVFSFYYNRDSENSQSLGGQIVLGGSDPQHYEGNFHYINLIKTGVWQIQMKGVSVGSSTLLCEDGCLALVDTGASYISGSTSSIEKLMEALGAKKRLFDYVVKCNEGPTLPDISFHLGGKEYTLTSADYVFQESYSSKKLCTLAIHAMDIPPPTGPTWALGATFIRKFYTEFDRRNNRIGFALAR
experiment.summary: In vitro test with pure human renin (inhibition of angiotensin I production from human tetradecapeptide renin substrate, RIA)
Type: biochemical
conditions.used: pH 7.4 buffer, hTD substrate, three hours at 37° C., angiotensin I by RIA
Experimental: IN VITRO TEST WITH PURE HUMAN RENIN The test is carried out in Eppendorf test tubes. […] The samples are incubated for three hours at 37° C. or 4° C. in triplicate. […] The production of angiotensin I is determined by the difference between the experiment at 37° C. and that at 4° C. […] In each sample the base value of the angiotensin I production is subtracted from the angiotensin I production which is determined. […]
pIC50: −log10 of the molar value.

compound	pIC50
CC(C)Cc1nc(-c2cccnc2)cn2c(C(Cc3cnc[nH]3)C(=O)N[C@@H](CC3CCCCC3)[C@@H](O)[C@@H](O)C3CC3)nnc12 (single isomer, unassigned) [C]	7.38
CCCc1nc(-c2cccnc2)cn2c(C(Cc3cccnc3)C(=O)N[C@@H](CC3CCCCC3)[C@@H](O)[C@@H](O)CC(C)C)nnc12 (single isomer, unassigned) [D]	7.24
CCC(C)c1nc(-c2cccnc2)cn2c(C(=O)N[C@@H](CC3CCCCC3)[C@@H](O)[C@@H](O)C3CC3)nnc12 (mixture of isomers) [F]	7.96
CCCc1nc(-c2cccnc2)cn2c(C(C(=O)N[C@@H](CC3CCCCC3)[C@@H](O)[C@@H](O)C3CC3)c3cccnc3)nnc12 (single isomer, unassigned) [A]	7.21
CCC(C)c1nc(-c2cccnc2)cn2c(C(Cc3cccnc3)C(=O)N[C@@H](CC3CCCCC3)[C@@H](O)[C@@H](O)C3CC3)nnc12 (single isomer, unassigned) [E]	7.32
CC(C)c1nc(-c2cccnc2)cn2c(C(Cc3c[nH]cn3)C(=O)N[C@@H](CC3CCCCC3)[C@@H](O)[C@@H](O)C3CC3)nnc12 (single isomer, unassigned) [B]	7.37
